target under test: E5 zinc finger protein (five C-terminal fingers of E2C) (artificial)
Sequence (chain, as listed by the source): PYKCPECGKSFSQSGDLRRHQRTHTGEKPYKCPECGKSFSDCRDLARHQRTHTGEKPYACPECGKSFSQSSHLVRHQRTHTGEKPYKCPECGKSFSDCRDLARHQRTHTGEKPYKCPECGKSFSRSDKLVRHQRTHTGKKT
assay procedure: EMSA
recorded conditions: tags: no cleavage domain
property name: Kd (nM)
Could you give me the number in nM? Just the number is fine.

INPUT: Data request, read-out Kd, for E5 binding site (dsDNA) DNA 1: GGGGCCGGAGCCGCA DNA 2: TGCGGCTCCGGCCCC
OUTPUT: 4.2
